# System: MCF7
# ASSAY SUMMARY: NCI tumour cell line growth inhibition, 48 h
The source made the active and inactive calls. Cut-off read from the data, not from the text of the source: active = GI50 up to about 1.1 µM and inactive = higher.
Outcomes: active, inactive

> print(dat)
                                    compound  assigned.label
 1  COC(=O)c1c2c(cc3c1CC1(Cc4ccccc4C1)C3)CCC2        inactive
 2  COc1ccc(C(=O)c2ccc(-n3c4ccccc4c4ccc5c(c43)C(=O)C=CC5=O)cc2)cc1          active
 3       O=Cc1ccc(-c2nccc3c2[nH]c2ccccc23)o1        inactive
 4  CN1CCN(/C(N)=C(\C#N)C(=O)Nc2ccc(Cl)cc2)CC1        inactive
 5          NC1=C(Cl)C(=O)c2c(O)ccc(O)c2C1=O        inactive
 6  O=C(CC(O)(C(F)(F)Cl)C(F)(F)Cl)CC(O)(C(F)(F)Cl)C(F)(F)Cl        inactive
 7                       Nc1nnnn1NC(=O)NCCCl        inactive
 8  COC(=O)[C@H]1ON2O[C@H](OC3CCCC[C@@H]3c3ccccc3)C[C@@H]3CC[C@H]1[C@@]32C (stereo not given in full)        inactive
 9                    N/C(S)=N/N=C/c1ncccc1O          active
10  CC[n+]1c(/C=C/c2ccc(N(CCCl)CCCl)cc2)ccc2cc(NC(=O)/C=C/c3ccccc3)ccc21          active

###

# Test system: SN12C
# ASSAY SUMMARY: NCI tumour cell line growth inhibition, 48 h
Activity calls are given as the source filed them. No stated cut-off is given here; in the data, active = GI50 up to about 1.1 µM and inactive = higher.
Labels: active, inactive

> print(dat)
                                   compound  assigned.label
1  CCOC(=O)CCC(NC(=O)c1ccc(Oc2nc3c(N)cc(C(F)(F)F)cc3nc2-c2ccccc2)cc1)C(=O)OCC (stereo not drawn)        inactive
2  Cc1cc(N(CCC#N)CCC#N)ccc1/N=N/c1ccc(C(=O)O)cc1        inactive
3  CCCCC(=O)OC[n+]1ccc2c(C)c3[nH]c4ccc(OC)cc4c3c(C)c2c1          active

###

# Tested on: OVCAR-8
# ASSAY SUMMARY: NCI tumour cell line growth inhibition, 48 h
Activity calls are given as the source filed them. No stated cut-off is given here; in the data, active = GI50 up to about 1.1 µM and inactive = higher.
Readings of GI50 for the listed molecules
OBSERVATION TYPE: GI50

> print(dat)
                                    molecule           test.value
 1  O=C1C(Br)=C(c2ccccc2)C(c2ccccc2)=C1c1ccccc1   2.04 µM (inactive)
 2  O=C(CSc1nc2ccccc2c(=O)n1-c1ccccc1)N/N=C1\C(=O)Nc2ccc(Br)cc21   1.85 µM (inactive)
 3  FC(F)(F)P1C2C=CC(CC2)C1(F)F (stereo unspecified)  > 100 µM (inactive)
 4  Brc1ccc2c(-c3nc(-c4c[nH]c5ccc(Br)cc45)cs3)c[nH]c2c1   7.14 µM (inactive)
 5             COC1=CC2=NCCc3n[nH]c(c32)C1=O   15.2 µM (inactive)
 6  CCCCCCCCCC1CC(=O)OC2=C1C(=O)CCC2 (stereo unspecified)  > 100 µM (inactive)
 7  Cc1cccc(CP(Cc2cccc(C)c2)CC2(Cp3c4ccccc4c4ccccc43)COC2)c1   1.78 µM (inactive)
 8  Clc1cc(OCc2nn3c(Cc4ccccc4)nnc3s2)c(Cl)cc1OCc1nn2c(Cc3ccccc3)nnc2s1   28.6 µM (inactive)
 9    Cc1nn2c(C(=O)N/N=C/c3ccccc3O)c(C)nc2s1  > 100 µM (inactive)
10  CC12CC(=O)OC(Cc3ccccc31)O2 (stereo unspecified)  > 100 µM (inactive)
11  CCOC(=O)C1=C(C#N)S(=O)(=O)c2c(oc(C)c2C)N1  > 100 µM (inactive)

###

# Tested on: MDA-N
# ASSAY SUMMARY: NCI tumour cell line growth inhibition, 48 h
Calls of active or inactive are those of the source. Cut-off read from the data, not from the text of the source: active = GI50 up to about 1.1 µM and inactive = higher.
Outcomes: true (1) for active, false (0) for inactive

> print(dat)
                                    compound  tested.on  assigned.label
 1  O=c1c2cc([N+](=O)[O-])ccc2oc2nc3n(c(=O)c12)CCCS3      MDA-N       false (0)
 2                    N#Cc1nc(-c2ccccn2)oc1N      MDA-N       false (0)
 3  COc1cc(NCc2ccc3nc(-c4ccccc4)c(N)nc3c2)cc(OC)c1OC      MDA-N       false (0)
 4  Oc1ccc2c(c1)OCC1c3ccccc3OC21 (centres undefined)      MDA-N       false (0)
 5       COC(=O)c1cnn2c1n[n+]([O-])c1ccccc12      MDA-N       false (0)
 6  CC(C)(C)c1cc(C(=O)/C=C/c2ccc3c(c2)OCO3)cc(C(C)(C)C)c1O      MDA-N       false (0)
 7           O=C(O)C#Cc1ccc([N+](=O)[O-])cc1      MDA-N       false (0)
 8                [O-][n+]1onc2c1-c1nonc1CC2      MDA-N       false (0)
 9                    N/C(S)=N/N=C/c1ncccc1O      MDA-N       false (0)
10                  NNC(=O)c1cc(=O)[nH][nH]1      MDA-N       false (0)
11                 COc1ccc2c(C)cc(=O)oc2c1OC      MDA-N       false (0)
12  COc1cccc2c(=O)c3c(O)c4cc(N(C)C)ccc4c(OC(C)=O)c3oc12      MDA-N       false (0)
13  CCN(CC)CCCNc1ccc2nc(C)n3c4ccc(O)cc4c(=O)c1c23      MDA-N       false (0)
14           Cc1ccccc1/N=N/c1c(O)ccc2ccccc12      MDA-N       false (0)
15   Cc1ccc(S(=O)(=O)NC(=O)NNc2ccc(F)cc2)cc1      MDA-N       false (0)
16           CCOC(=O)CCCNC(=O)CCCCC(=O)N(C)C      MDA-N       false (0)
17  CC(C)(Cl)C(Cl)CC/C(CBr)=C(\Cl)CCl (centres undefined)      MDA-N       false (0)
18  COc1cc(C(=O)OCCn2[nH]c(-c3ccc(Cl)cc3)nc2=S)cc(OC)c1OC      MDA-N       false (0)
19                  Cc1nc2ccc(Cl)cc2c2c1CCS2      MDA-N       false (0)
20  Cc1nn(-c2ccccc2)c2nc3c(c(C)nn3-c3ccccc3)c(-c3ccc(C(F)(F)F)cc3)c12      MDA-N       false (0)
21  CC(C)C(C)C(O)C(O)C(C)C1CCC2C3COC(=O)C4CC(O)C(O)CC4(C)C3CCC12C (centres undefined)      MDA-N       false (0)
22        Cc1ccc(-c2ccc3c(c2)Sc2ccccc2O3)n1C      MDA-N        true (1)
23  CC1(C)[C@@H]2C[C@H]1[C@@H](Cc1cccc(C[C@H]3c4cc(-c5ccccn5)ncc4[C@H]4C[C@@H]3C4(C)C)c1)c1cc(-c3ccccn3)ncc12      MDA-N       false (0)
24  C=CC(C)(C)n1cc(C2=C(O)C(=O)C(c3cn(C(C)(C)C=C)c4ccccc34)=C(OC(C)=O)C2=O)c2ccccc21      MDA-N        true (1)
25     O=c1[nH]c(=O)n(COC(CO)CO)cc1-c1ccccc1      MDA-N       false (0)
26  Cc1ccc(NC(=O)c2cccc(OP(=O)(O)Nc3ccc(C)cc3)c2)cc1      MDA-N       false (0)
27  Cc1c(C)c(C)c(-n2[nH]c(=O)n(C)c2=O)c(C)c1C      MDA-N       false (0)
28       O=Cc1ccc(-c2nccc3c2[nH]c2ccccc23)o1      MDA-N       false (0)
29  O=C(NCCNCCNCCNC(=O)c1cc(-c2ccccc2)nc2ccccc12)c1cc(-c2ccccc2)nc2ccccc12      MDA-N       false (0)
30  CO[C@@H]1C=C[C@@]23c4cc5c(cc4C(O)N(CC2O)C3C1)OCO5 (some centres undefined)      MDA-N       false (0)
31  CC(C)(C)C(O)CC(O)(C(F)(F)F)C(F)(F)F (centres undefined)      MDA-N       false (0)
32          N#C/C=C(/NC(=O)Nc1ccccc1)N1CCCC1      MDA-N       false (0)
33      CN(CCO)CC(=O)CC(O)(C(F)(F)F)C(F)(F)F      MDA-N       false (0)
34       Nc1ccc2c(c1)Nc1c3ccccc3nc3cccc-2c13      MDA-N       false (0)
